- assay_system: T1, recombinant alipidated human ApoE4 (human, UniProt P02649 19-317)
- T1 construct: mature; full length recombinant protein made in E. coli or bought; biotinylated for SPR; position 112 is counted on the mature protein, not on the precursor entry; also called recApoE; non-lipidated ApoE4
- T1 sequence (P02649 19-317 C130R): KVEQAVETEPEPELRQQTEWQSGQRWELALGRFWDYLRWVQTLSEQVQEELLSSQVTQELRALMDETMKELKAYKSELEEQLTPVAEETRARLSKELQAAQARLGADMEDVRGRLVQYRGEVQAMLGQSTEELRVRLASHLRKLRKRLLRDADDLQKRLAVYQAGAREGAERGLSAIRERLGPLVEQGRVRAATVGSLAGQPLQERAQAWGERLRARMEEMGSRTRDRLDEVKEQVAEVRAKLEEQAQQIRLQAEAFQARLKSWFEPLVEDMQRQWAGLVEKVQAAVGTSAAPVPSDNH
- method: direct ELISA on coated recombinant alipidated ApoE (0.5 ug/ml)
measurement_label: pEC50
Quick note: pEC50 values are minus log10 of concentrations in mol/L.

Input: Write down pEC50 measured for item HJ159 (antibody, V domains shown, murine monoclonal antibody from hybridoma) VH: QVQLQQSGPDLVKPGASVKISCKASGYTFIDYYINWAKQRPGQGLEWIGWIFPGSGSTYYNEKFKGKATLTVDKSSSTAYMFLSSLTSEDSAVFFCARYYGSSPFAYWGQGTLVTVSA VL: DVLMTQTPLSLPVSLGDQASISCRSSQNIVYSNGNTYLEWYLQKPGQSPKLLIYKVSNRFSGVPDRFSGSGSGTYFTLKISRVEAEDLGIYYCFQGSHVPYTFGGGTKLEIKR
Output: 9.49

Input: Give pEC50 for HJ156 (antibody, V domains shown, murine monoclonal antibody from hybridoma; also called HJ156B (biotinylated)) VH: QVQLQQSGPELVKPGASVKISCKASGYIFTDYYINWVKRRPGQGLEWIGWIFPGSGVSYYNEQFKGKATLTVDKPSNTAYIFLSRLTSEDSAVYFCARYYSSSPFAYWGQGTLVTVSA VL: DVLMTQTPLSLPVSLGDQASISCRSSQNIIHSNGNTYLEWFLQRPGQSPELLIYKVSNRFSGVPDRFSGSGSGTDFTLKISRVEAEDLGVYYCFQGSHVPYTFGGGTKLEIKR
Output: 9.21

Input: Provide pEC50 value for the following binder: HJ1526 (antibody, V domains shown, murine monoclonal antibody from hybridoma) VH: QVQLQQPGTALVKPGASVKLSCKSSGYTFTDYWVHWVKQRPGQGLEWIGNINPRNGGINYNENFKGKAILTVDRSFSIAYMQLNSLTSEDSAVYYCARPGATVVHRTPWFAHWGQGTLVTVSA VL: EIVLTQSPALMAASPGEKVTITCSVSSSISSSNLHWFQQKSETSPKPWIFGTSYLASGVPVRFSGSGSGTSYSLTISSMEAEDAATYYCQQWNSYPLTFGAGTKLELR
Output: 10.40

Input: Please list pEC50 recorded for the binder HJ1518 (antibody, V domains shown, murine monoclonal antibody from hybridoma) VH: QVQLQQSGPELVKPGASVKISCKASGYTFSDYYINWVKQRPGQGLEWIGWIFPGSGSSYYNEKFKGKATLTVDKSSRTAYMLLSSLTSEDSAVYFCARYYGSSPFAYWGQGTLVTVST VL: DVLMTQSPLSLPVSLGDQASISCRSSQSIVHRNGNTYLEWYLQKPGQSPKLLIYKVSNRFSGVPDRFSGSGSGTDFTLKISRVEAEDLGVYYCFQGSHVPYTFGGGTKLEIRR
Output: 10.22

Input: Please report the measured pEC50 for HJ1513 (antibody, V domains shown, murine monoclonal antibody from hybridoma) VH: QIQLQQSGPELVKPGASVKISCKASGYTFTDYYINWVRQRPGQGLEWIGWIYPESFNTYYNEKFKGKATLTVDTSSNTAYMQLSSLTSEDSAVYFCARYYVSSPFAYWGQGTLVTVSA VL: DVLMTQTPLSLPVSLGDQASISCRSSQNIIHSNGNTYLEWFLQKPGQSPKLLIYKVSNRFSGVPDRFSGSGSGTDFTLKISRVEAEDLGVYYCFQGSHVPYTFGGGTKLEIKR
Output: 9.34
